system: Human alphaherpesvirus 1; assay: Antiviral activity against Herpes simplex virus type 1; type: functional, organism-based
measurement kind: pIC50
Expect pIC50 as a plain number equal to -log10 of the molar concentration.

The recorded pIC50 for Nc1nc2c(ncn2COCCO)c(=O)[nH]1 [ACYCLOVIR] is 4.89

====

Field: IC50. Provide a value for each of the compounds that follow.
system: KB; assay: Cytotoxicity against human KB cells by SRB assay; type: functional, cell-based

The recorded IC50 for C[C@H]1CC[C@H]2[C@@H](C=C[C@@H]3CO[C@](C)(O)C(=O)[C@@]32C)C1 [OBLONGOLIDE T] is > 76 µM

The recorded IC50 for C[C@H]1CC[C@H]2[C@@H](C=C[C@@H]3CO[C@@](O)(CO)C(=O)[C@@]32C)C1 [OBLONGOLIDE X] is > 71 µM

The recorded IC50 for `Cc1ccc(O)c2c1C[C@@H](C)OC2=O` is > 104 µM

The recorded IC50 for C[C@H]1CC[C@H]2[C@@H](C=C[C@]3(O)COC(=O)[C@]23C)C1 [OBLONGOLIDE C] is > 85 µM

The recorded IC50 for `C[C@H]1CC[C@H]2[C@@H](C=C[C@@H]3[C@@H](O)O[C@@H](CO)C(=O)[C@@]32C)C1` is > 71 µM

The recorded IC50 for CO[C@]1(C(C)=O)OC[C@H]2C=C[C@H]3C[C@@H](C)CC[C@@H]3[C@]21C [OBLONGOLIDE Y] is > 72 µM

The recorded IC50 for C[C@H]1CC[C@H]2[C@@H](C=C[C@@H]3COC(=O)[C@](O)(CO)[C@@]32C)C1 [OBLONGOLIDE W2] is > 71 µM

The recorded IC50 for CC(=O)[C@@]1(OCCc2ccccc2)OC[C@H]2C=C[C@H]3C[C@@H](C)CC[C@@H]3[C@]21C [OBLONGOLIDE Z] is 37 µM

====

test system: KB; assay: Cytotoxicity against human KB cells by SRB assay; format: functional, cell-based
measurement kind: IC50

The recorded IC50 for C[C@H]1CC[C@H]2[C@@H](C=C[C@@H]3COC(=O)[C@@](O)(CO)[C@@]32C)C1 [OBLONGOLIDE W1] is > 71 µM

The recorded IC50 for C[C@H]1CC[C@H]2[C@@H](C=C[C@@H]3COC(=O)[C@@]32C)C1 [OBLONGOLIDE] is > 91 µM

The recorded IC50 for COc1cccc2c1C(=O)c1c(O)c3c(c(O)c1C2=O)C[C@@](O)(C(=O)CO)C[C@@H]3O[C@H]1C[C@H](N)[C@H](O)[C@H](C)O1 [DOXORUBICIN] is 0.24 µM

The recorded IC50 for C[C@H]1CC[C@H]2[C@H](C1)[C@@H]1O[C@@H]1[C@@H]1COC(=O)[C@]21C [OBLONGOLIDE Q] is > 85 µM

meta.source: ChEMBL document CHEMBL1154864
